Target: T1, human CD3 expressed on cells (Jurkat cells, a CD3+ human T-cell line; human PBMC T cells) (human, UniProt P07766 23-207; P04234 22-171)
T1 construct: Cell-surface CD3 within the T cell receptor complex
T1 sequence (P07766 23-207 limits assumed, chain 1 of 2): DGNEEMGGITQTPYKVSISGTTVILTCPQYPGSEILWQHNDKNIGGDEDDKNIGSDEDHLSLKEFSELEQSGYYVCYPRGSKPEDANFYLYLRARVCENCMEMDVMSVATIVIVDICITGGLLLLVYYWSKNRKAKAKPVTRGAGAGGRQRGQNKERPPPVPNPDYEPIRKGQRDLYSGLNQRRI
T1 sequence (P04234 22-171 limits assumed, chain 2 of 2): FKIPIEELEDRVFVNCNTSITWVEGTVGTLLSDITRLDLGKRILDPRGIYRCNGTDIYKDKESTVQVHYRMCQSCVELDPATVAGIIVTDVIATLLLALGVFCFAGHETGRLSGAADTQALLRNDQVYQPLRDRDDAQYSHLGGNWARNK
Assay: FACS on Jurkat cells
Procedure: FACS data was acquired using the following protocol: Cells at 2×10⁵ per well were incubated with serially diluted antibodies for 30 min on ice. […] After incubation, cells were washed, re-suspended in cold PBS containing 1% BSA and analyzed by flow cytometry with viable Jurkat cells gated by side and forward scatters. The EC₅₀s for cell binding titration were determined using Prism software with values calculated using a 4-parameter non-linear regression analysis.
What EC50 was measured for each of the following?
# output: bare number, implied unit nM

Please look up its EC50: H2M2778N (antibody, mouse IgG2, V domains shown, H2M: mouse IgG2 Fc, human variable regions; divalent) VH: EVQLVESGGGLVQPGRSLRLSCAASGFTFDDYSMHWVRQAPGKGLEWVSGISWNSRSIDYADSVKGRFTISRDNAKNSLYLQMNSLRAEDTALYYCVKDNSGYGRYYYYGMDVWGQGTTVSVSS VL: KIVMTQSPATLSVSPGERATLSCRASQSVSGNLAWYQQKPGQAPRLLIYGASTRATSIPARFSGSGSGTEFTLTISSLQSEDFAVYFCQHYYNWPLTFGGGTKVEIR
3.62

Input H2M3563N (antibody, mouse IgG2, V domains shown, H2M: mouse IgG2 Fc, human variable regions; divalent) VH: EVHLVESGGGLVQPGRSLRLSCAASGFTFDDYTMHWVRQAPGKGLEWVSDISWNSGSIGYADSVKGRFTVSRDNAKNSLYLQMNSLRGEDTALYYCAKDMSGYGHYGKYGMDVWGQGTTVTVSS VL: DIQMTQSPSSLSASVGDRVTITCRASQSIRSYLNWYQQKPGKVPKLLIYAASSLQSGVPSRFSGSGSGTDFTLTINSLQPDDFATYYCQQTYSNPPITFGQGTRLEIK
1.07

Input H2M2690N (antibody, mouse IgG2, V domains shown, H2M: mouse IgG2 Fc, human variable regions; divalent) VH: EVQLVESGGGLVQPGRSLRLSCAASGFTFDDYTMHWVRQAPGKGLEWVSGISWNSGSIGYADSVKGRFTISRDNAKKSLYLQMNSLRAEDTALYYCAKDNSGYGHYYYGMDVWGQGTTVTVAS VL: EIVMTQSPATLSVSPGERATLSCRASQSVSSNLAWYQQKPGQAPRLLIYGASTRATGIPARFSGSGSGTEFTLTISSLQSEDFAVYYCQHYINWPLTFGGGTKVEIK
4.37

Input H2M2710N (antibody, V domains shown, H2M: mouse IgG2 Fc, human variable regions; divalent) VH: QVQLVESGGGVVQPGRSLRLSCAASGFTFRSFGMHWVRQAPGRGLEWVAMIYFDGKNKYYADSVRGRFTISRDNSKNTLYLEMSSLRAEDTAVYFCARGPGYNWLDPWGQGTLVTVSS VL: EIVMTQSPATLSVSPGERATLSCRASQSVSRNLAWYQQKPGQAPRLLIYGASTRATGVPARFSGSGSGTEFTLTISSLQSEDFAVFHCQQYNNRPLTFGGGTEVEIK
0.71
